# assay-info: qHTS assay to identify small molecule agonists of the androgen receptor (AR) signaling pathway in the presence of an antagonist - cell viability counter screen (AID 1259379);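 further: MDA-kb2 human breast cancer cells carrying an MMTV luciferase reporter; nearly all actives have a fitted effect of over 25% in size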
# condition-parameters: MDA-kb2 viability, CellTiter-Fluor, 16 h; series mostly up to 92.4 µM
Inconclusive results are not listed. Calls of active or inactive are those of the source. The call rests on the fitted dose curve; in most records, active means well fitted cell-killing curve with a large enough effect in the repeat runs; inconclusive means weak or mixed curves, or effect the other way; inactive means flat fitted curve, though single readings scatter.
outcome-measure: outcome

CN(N=O)C(N)=O    inactive
C=C(C)CN(CC)c1c([N+](=O)[O-])cc(C(F)(F)F)cc1[N+](=O)[O-]    inactive
O=C1CN=C(c2ccccc2)c2cc([N+](=O)[O-])ccc2N1    inactive
CCOP(=S)(Oc1cnc(C(C)(C)C)nc1)OC(C)C (configuration not stated)    inactive
CCCSP(=O)(OCC)Oc1ccc(Br)cc1Cl (configuration not stated)    inactive
COc1cccc(C(=O)NN(C(=O)c2cc(C)cc(C)c2)C(C)(C)C)c1C    inactive
CC(Oc1ccc(Oc2ncc(C(F)(F)F)cc2Cl)cc1)C(=O)O (configuration not stated)    inactive
CC1CCC(=O)O1 (configuration not stated)    inactive
O=C(CCN1CC1)OCC(CO)(COC(=O)CCN1CC1)COC(=O)CCN1CC1    inactive
c1coc(-c2nc3ccccc3[nH]2)c1    inactive

Per the records, this molecule ( COP(N)(=S)Oc1ccccc1C(=O)OC(C)C (configuration not stated) ) has outcome equal to inactive

// CC(C)NCC(O)c1ccc(N)c(C#N)c1 (configuration not stated) : outcome value = inactive
